# targetEntity: glutathione-S-transferase (GST) tagged LXRbeta LBD (ligand binding domain) (Homo sapiens)
# Construct: purchased Invitrogen pv4658.pps
# Sequence (P55055 222-460 limits assumed): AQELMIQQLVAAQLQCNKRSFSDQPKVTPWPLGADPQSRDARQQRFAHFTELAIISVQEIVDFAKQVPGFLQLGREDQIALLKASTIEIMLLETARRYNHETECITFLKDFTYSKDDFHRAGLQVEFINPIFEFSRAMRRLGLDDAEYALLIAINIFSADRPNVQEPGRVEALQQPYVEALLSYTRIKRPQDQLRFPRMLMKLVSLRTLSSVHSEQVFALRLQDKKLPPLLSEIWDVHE
# assayMethodText: LanthaScreen TR-FRET Liver X Receptor Coactivator Assay, LXR beta
# Assay type: biochemical
# runConditions: LXR beta IP (nM), potency (Inflection Point) of compound-induced co-activator recruitment, TR-FRET
Recorded EC50 by entry
// return numeric value only (unit: nM, not printed)

Example entries and their recorded answers appear below.
CN(C)C(=O)c1ccc([S+]([O-])C2CCC3(CC2)CCN(C(=O)C(O)(c2cc(Cl)cc(Cl)c2)C(F)(F)F)CC3)cc1Cl (single isomer, unassigned); 938
CN(C)C(=O)c1ccc(NCCC2CC23CCN(C(=O)C2(c4ccccc4)CCCC2)CC3)cc1Cl (single isomer, unassigned); 7
COc1cccc(C(O)(C(=O)N2CCC3(CCC(Cc4ccc(C(=O)N(C)C)c(Cl)c4)CC3)CC2)C(F)(F)F)c1 (single isomer, unassigned); 72

# molecule CN(C)C(=O)c1ccc(N(C)CCCC2CCN(C(=O)C(O)(c3ccccc3)C(F)(F)F)CC2)cc1Cl (single isomer, unassigned) ; its EC50 = 47

# molecule CN(C)C(=O)c1ccc(CCCC2CCN(C(=O)C(O)(c3ccccc3)C(F)(F)F)CC2)cc1Cl (single isomer, unassigned) ; its EC50 = 46

# molecule CN(C)C(=O)c1ccc(S(=O)(=O)C2CCC3(CC2)CCN(C(=O)C(O)(c2cc(Cl)cc(Cl)c2)C(F)(F)F)CC3)cc1Cl (single isomer, unassigned) ; its EC50 = 1460
